Test: A CellTox Green Cytotoxicity Assay to monitor cytotoxicity in HEK293 cells - 32 hour (AID 1224881); note: nearly all actives have a fitted effect of over 40% in size
Details: CellTox Green fluorescence; series mostly up to 76.8 µM
Inconclusive results are not listed. Activity calls are given as the source filed them. Calls come from the whole dose curve; as a rule, active = well fitted activation curve with a large enough effect in the repeat runs; inconclusive = weak or mixed curves; inactive = flat fitted curve, though single readings scatter.
Possible outcomes: y for active, n for inactive

Compound | Answer Label
C=C(C)C(=O)OCC | n
Cc1ccccc1S(=O)(=O)O | n
CC(C)O.CC(C)O.CCOC(=O)/C=C(\C)O.CCOC(=O)/C=C(\C)O.[Ti] | n
Nc1ccccc1S(=O)(=O)c1ccccc1 | n
c1ccc(C(O[C@H]2CCCN(CCc3ccc4c(c3)OCO4)C2)c2ccccc2)cc1 | n
CCCn1cnc2c1c(=O)n(CCCCC(C)=O)c(=O)n2C | n
COS(=O)(=O)C(F)(F)F | n
C=C(C)C(=O)OCCO | n
O=C(NCCO[N+](=O)[O-])c1cccnc1 | n
Brc1c2ccccc2cc2ccccc12 | n
CCOC(=O)NCCOc1ccc(Oc2ccccc2)cc1 | n
CC(=O)c1ccc2c(c1)N(CCCN(C)C)c1ccccc1S2 | n
C=C(C)C(=O)OCCOCC | n
NS(=O)(=O)c1ccc(N2CCCCS2(=O)=O)cc1 | n
CCn1cc(C(=O)O)c(=O)c2cnc(N3CCNCC3)nc21 | n
Nc1cccc([N+](=O)[O-])c1 | n
O=CC1CC=CCC1 (centres undefined) | n
CN1CCC(N(Cc2cccs2)c2ccccc2)CC1 | y
O=S(c1cc(Cl)cc(Cl)c1O)c1cc(Cl)cc(Cl)c1O | n

# credit: PubChem BioAssay (Tox21)
